Below is a list of entries, each paired with its recorded protein stability index value.
B1: KRT18 (parent)
chain: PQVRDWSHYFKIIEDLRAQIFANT

- Variants of: B1
- measurement_description: protein stability index of a GFP-peptide fusion (GPS, HEK-293T) (PSI 1-6); higher = more stable;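 note: lentivirally expressed fusions sorted by FACS into six bins by GFP to DsRed ratio, PSI derived from sequencing read proportions per bin multiplied by bin number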
- details: c terminus: a fixed tail appended

| sequence_data | protein stability index |
| --- | --- |
| PQVRDWSHYFKIIEDLRAQICANT [F21C] | 1.97 |
| PQVRDWSHYFKIIEDIRAQIFANT [L16I] | 2.03 |
| SQVRDWSHYFKIIEDLRAQIFANT [P1S] | 2.02 |
| PQVRGWSHYFKIIEDLRAQIFANT [D5G] | 1.99 |
| PQVRDWRHYFKIIEDLRAQIFANT [S7R] | 1.99 |
